METHOD_SUMMARY: Metabolic stability in dog hepatocytes assessed as compound remaining after 90 mins
Format: ADME, cell-based, Canis lupus familiaris, Hepatocyte
REPORTED_CONDITIONS: read-out: Stability
Recorded measurements of remaining at 1.5 h, one per entry
MEASURED_ENDPOINT: remaining at 1.5 h (%)

{"COMPOUND": "CC(C)(C)[C@@H](O)C(=O)N1CCC[C@H]1C(=O)NCc1cc(Cl)ccc1CN.O=C(O)C(F)(F)F", "VALUE": 93}
{"COMPOUND": "CC(C)(C)[C@@H](O)C(=O)N1CCSC[C@H]1C(=O)NCc1cc(Cl)ccc1CN.O=C(O)C(F)(F)F", "VALUE": 76}
